# Test system: KU-812
# methodNotes: cell viability (% survival relative to DMSO control, bortezomib = 0%); higher = less cytotoxic
# conditionLabel: 10000 nM; 72 h
measuredQuantity: cell viability (%)

compound	endpointValue
CCCCC/C=C\C/C=C\C/C=C\C/C=C\CCCCN1C(=O)C=CC1=O [N-Arachidonylmaleimide]	91.4
CCC(=O)N1CCN(c2ccc(-n3c(=O)ccc4cnc5ccc(-c6cnc7ccccc7c6)cc5c43)cc2C(F)(F)F)CC1	20.1
O=C1O[C@H]([C@@H](O)CO)C(O)=C1O [Vitamin C (ascorbate)]	108
C=C(C)[C@H]1Cc2c(ccc3c2O[C@@H]2COc4cc(OC)c(OC)cc4[C@@H]2C3=O)O1	2.89

----------
Reported cell viability values for a set of molecules
# Test system: BV-173
# methodNotes: cell viability (% survival relative to DMSO control, bortezomib = 0%); higher = less cytotoxic
# conditionLabel: 10000 nM; 72 h

molecule	cell viability, %
O[C@H]1[C@H]2[C@H](O)CCCN2C[C@H]1O	86.1
Cc1ccccc1C(C(=O)NC1CCCCC1)N(C(=O)Cn1ccnc1C)c1cccc(F)c1 (centres undefined)	95.2
CN(C)c1cc(NC(=O)CNC(C)(C)C)c(O)c2c1C[C@H]1C[C@H]3[C@H](N(C)C)C(=O)C(C(N)=O)C(=O)[C@@]3(O)C(=O)C1C2=O (some centres undefined)	83.4
CC1(C)[C@@H](O[C@H]2O[C@H](C(=O)O)[C@@H](O)[C@H](O)[C@H]2O[C@@H]2O[C@H](C(=O)O)[C@@H](O)[C@H](O)[C@H]2O)CC[C@]2(C)[C@H]3C(=O)C=C4[C@@H]5C[C@@](C)(C(=O)O)CC[C@]5(C)CC[C@@]4(C)[C@]3(C)CC[C@@H]12	83.4
Nc1nc(Cl)nc2c1ncn2[C@H]1C[C@H](O)[C@@H](CO)O1	-0.197
O=c1cc(-c2ccccc2)oc2cc(O)c(O)c(O)c12	64.2
N/C(=N\CCCC(N)C(=O)O)N[N+](=O)[O-] (centres undefined)	96.1
O=C(O)C[C@@]1(O)C[C@@H](CCCCCCc2ccc(Cl)cc2Cl)OC1=O	96.4
CC[C@@]1(O)C(=O)OCc2c1cc1n(c2=O)Cc2cc3c(CN(C)C)c(O)ccc3nc2-1	0.196
COc1ccc(CNC(=O)Nc2ncc([N+](=O)[O-])s2)cc1	92.7
CCN(CC)CCCC(C)Nc1ccnc2cc(Cl)ccc12 (centres undefined)	85.2
Nc1ccccc1C(=O)C[C@H](N)C(=O)O	102
O=c1oc2c(O)c(O)cc3c(=O)oc4c(O)c(O)cc1c4c23	99.1
O=C(C1CC1)N1CC[C@@H](C=C2NNC(=O)N2c2ccc(-c3ccc4occc4c3)cc2)C1	63.7
C=C(C=NNC(=N)N)NNC(=N)N	13.3
O=C(O)C1=CC(=C(c2ccc(O)c(C(=O)O)c2)c2ccc(O)c(C(=O)O)c2)C=CC1=O	9.49
COc1ccc(C(=O)Nc2c(Cl)cncc2Cl)cc1OC1CCCC1	99.7
O=C(NCCCCCCNC(=O)ONC1=CCCCC1)ONC1=CCCCC1	95.2
O=C1O[C@H]([C@@H](O)CO)C(O)=C1O [Vitamin C (ascorbate)]	118

----------
# Test system: THP-1
# methodNotes: cell viability (% survival relative to DMSO control, bortezomib = 0%); higher = less cytotoxic
# conditionLabel: 10000 nM; 72 h

compound	measurementUnits	cell viability
O=C(NCCCCCCNC(=O)ONC1=CCCCC1)ONC1=CCCCC1	%	100
O=C(O)c1cc(Cl)cc(Cl)c1O [3,5-Dichlorosalicylic Acid]	%	98.8
COc1cc(/C=C/C(=O)N2CCC=CC2=O)cc(OC)c1OC [Piperlongumine]	%	-0.152

----------
# Test system: KU-812
# methodNotes: cell viability (% survival relative to DMSO control, bortezomib = 0%); higher = less cytotoxic
# conditionLabel: 10 nM; 72 h

compound	cell viability (%)
O=C(O)c1cc(N=Nc2ccc(S(=O)(=O)Nc3ccccn3)cc2)ccc1O [Sulfasalazine]	98.2
O=C1c2cc([N+](=O)[O-])ccc2-n2c1nc1ccccc1c2=O [GNF-Pf-3777]	91.1
O=C(O)C1=CC(=C(c2ccc(O)c(C(=O)O)c2)c2ccc(O)c(C(=O)O)c2)C=CC1=O [Aurintricarboxylic acid]	102
NC(=O)c1cccc(-c2cccc(OC(=O)NC3CCCCC3)c2)c1 [URB-597]	99.1
C[C@H](NC(=O)c1sccc1OCc1ccc(Cl)cc1)c1ccccc1	96.1
CC(C)c1onc(-c2c(Cl)cccc2Cl)c1COc1ccc(/C=C/c2cccc(C(=O)O)c2)c(Cl)c1 [GW4064]	99.7
NS(=O)(=O)c1ccc([N+](=O)[O-])cc1 [4-Nitrobenzenesulfonamide]	95.7
CCCCN1C[C@H](O)[C@@H](O)[C@H](O)[C@H]1CO [Miglustat]	94.6

----------
Reported cell viability values for a set of compounds
# Test system: LAMA-84
# methodNotes: cell viability (% survival relative to DMSO control, bortezomib = 0%); higher = less cytotoxic
# conditionLabel: 1000 nM; 72 h

compound	targetEntity	cell viability, %
CN(C)c1cc(NC(=O)CNC(C)(C)C)c(O)c2c1C[C@H]1C[C@H]3[C@H](N(C)C)C(=O)C(C(N)=O)C(=O)[C@@]3(O)C(=O)C1C2=O (stereo partly drawn) [Tigecycline]	LAMA-84	102
Cc1cn([C@H]2C[C@H](O)[C@@H](COP(=O)(O)OP(=O)(O)O)O2)c(=O)[nH]c1=O [Thymidine diphosphate]	LAMA-84	94.5
CCCCC/C=C\C/C=C\C/C=C\C/C=C\CCCCN1C(=O)C=CC1=O [N-Arachidonylmaleimide]	LAMA-84	97.7

----------
# Tested on: HL-60
# methodNotes: area under dose-response curve (viability, 1 nM-10 uM) (fraction (0-1)); higher = more sensitive
# conditionLabel: 72 h; co-treatment: GSK2194069 100 nM
Reported area under dose-response curve values for a set of compounds
measuredQuantity: area under dose-response curve

structureSmilesString	endpointValue
Cn1cc(-c2ccncc2)c(-c2ccc(OCc3ccc4ccccc4n3)cc2)n1	0.05
CCCc1cc(-c2nc(-c3ccc(C)cc3)cs2)ccn1	0.0533
CC1(C)[C@@H](O[C@H]2O[C@H](C(=O)O)[C@@H](O)[C@H](O)[C@H]2O[C@@H]2O[C@H](C(=O)O)[C@@H](O)[C@H](O)[C@H]2O)CC[C@]2(C)[C@H]3C(=O)C=C4[C@@H]5C[C@@](C)(C(=O)O)CC[C@]5(C)CC[C@@]4(C)[C@]3(C)CC[C@@H]12	< 0.0301
C[C@](N)(Cc1ccc(O)cc1)C(=O)O	< 0.0301
O=C(O)C1=CC(=C(c2ccc(O)c(C(=O)O)c2)c2ccc(O)c(C(=O)O)c2)C=CC1=O	< 0.0301
CCC(=O)N1CCN(c2ccc(-n3c(=O)ccc4cnc5ccc(-c6cnc7ccccc7c6)cc5c43)cc2C(F)(F)F)CC1	< 0.0301
O=C(O)C(=S)Cc1c[nH]c2ccc(F)cc12	< 0.0301

----------
Reported cell viability values for a set of molecules
# Test system: myeloid leukemia patient primary cells Pat.14
# methodNotes: cell viability (% survival relative to DMSO control); higher = less cytotoxic
# conditionLabel: 10000 nM; 72 h

structureSmilesString	targetEntity	cell viability (%)
O=C(C1CC1)N1CC[C@@H](C=C2NNC(=O)N2c2ccc(-c3ccc4occc4c3)cc2)C1	myeloid leukemia patient primary cells Pat.14	79.5
O=C(O)Cn1nnc(-c2cc(N3CCC(Oc4cc(F)ccc4Br)CC3)no2)n1	myeloid leukemia patient primary cells Pat.14	89.8
O=C1c2cc([N+](=O)[O-])ccc2-n2c1nc1ccccc1c2=O	myeloid leukemia patient primary cells Pat.14	54.2

----------
# Tested on: ML-2
# methodNotes: cell viability (% survival relative to DMSO control, bortezomib = 0%); higher = less cytotoxic
# conditionLabel: 1 nM; 72 h
Reported cell viability values for a set of compounds
measuredQuantity: cell viability (%)

compound	targetEntity	endpointValue
CC[C@@]1(O)C(=O)OCc2c1cc1n(c2=O)Cc2cc3c(CN(C)C)c(O)ccc3nc2-1	ML-2	94.6
Oc1ccc(Nc2nc(-c3ccc(Cl)cc3)cs2)cc1	ML-2	93.8
COc1ccc2c(C(=S)N(C)CC(=O)O)cccc2c1C(F)(F)F	ML-2	90.2
N#CC(C#N)=NNc1ccc(OC(F)(F)F)cc1	ML-2	104
COc1ccc(CNC(=O)Nc2ncc([N+](=O)[O-])s2)cc1	ML-2	91.8
O=c1cc(-c2ccccc2)oc2cc(O)c(O)c(O)c12	ML-2	98.9
Cc1cn([C@H]2C[C@H](O)[C@@H](COP(=O)(O)OP(=O)(O)O)O2)c(=O)[nH]c1=O [Thymidine diphosphate]	ML-2	95.6
CN(C)C(=O)[C@H](O)[C@H](Cc1ccccc1)NC(=O)c1cc2cc(Cl)ccc2[nH]1	ML-2	110
NS(=O)(=O)c1ccc([N+](=O)[O-])cc1 [4-Nitrobenzenesulfonamide]	ML-2	103
Cc1c(-c2ccc(-c3ccccc3F)cc2)nc2ccc(F)cc2c1C(=O)O	ML-2	97.2
CCC(=O)N1CCN(c2ccc(-n3c(=O)ccc4cnc5ccc(-c6cnc7ccccc7c6)cc5c43)cc2C(F)(F)F)CC1	ML-2	96.1
O=C(O)CCCCC(CCSCc1ccccc1)SCc1ccccc1 (stereo not drawn)	ML-2	89.7
CCOC(=O)c1ccc(-c2ccc(OC(=O)N(C)Cc3cccc(-c4ccncc4)c3)cc2)cc1	ML-2	104
CC[C@H](C)C(=O)O[C@H]1C[C@@H](C)C=C2C=C[C@H](C)[C@H](CC[C@@H]3C[C@@H](O)CC(=O)O3)[C@H]21	ML-2	108
CC(C)(C#N)c1cc(Cn2cncn2)cc(C(C)(C)C#N)c1	ML-2	106
O=C(C1CC1)N1CC[C@@H](C=C2NNC(=O)N2c2ccc(-c3ccc4occc4c3)cc2)C1	ML-2	101
O=C(O)c1cc(Cl)cc(Cl)c1O	ML-2	97.4
N/C(=N\CCCC(N)C(=O)O)N[N+](=O)[O-] (stereo not drawn)	ML-2	90.7
